- Target Or Test System: MAGI2_5, Q86UL8
- Sequence (Q86UL8 915-1017): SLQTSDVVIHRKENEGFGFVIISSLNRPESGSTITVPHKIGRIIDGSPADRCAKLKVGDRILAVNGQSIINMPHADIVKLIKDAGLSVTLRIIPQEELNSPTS
- Test Details: holdup assay
- Parameters: key: below the threshold = too weak to quantify, mostly under pKd 3.1 to 4
- Experimental Setup: plain residues with an end cap or a label only (N-terminal biotin on a linker: ado-ado)
Metric Name: pKd
Form rule: numeric answer, no unit written next to it.

TKDKVQETQI [LRRC4, Q9HBW1] :: 3.96

Please turn your attention to the following entry.
# get_value(readout='pKd', item= PEKVSNTTVV [IGSF5, Q9NSI5] )
3.64
